- TARGET_OR_TEST_SYSTEM: Sodium-dependent dopamine transporter (Rattus norvegicus, UniProt P23977)
- Sequence (P23977 whole entry): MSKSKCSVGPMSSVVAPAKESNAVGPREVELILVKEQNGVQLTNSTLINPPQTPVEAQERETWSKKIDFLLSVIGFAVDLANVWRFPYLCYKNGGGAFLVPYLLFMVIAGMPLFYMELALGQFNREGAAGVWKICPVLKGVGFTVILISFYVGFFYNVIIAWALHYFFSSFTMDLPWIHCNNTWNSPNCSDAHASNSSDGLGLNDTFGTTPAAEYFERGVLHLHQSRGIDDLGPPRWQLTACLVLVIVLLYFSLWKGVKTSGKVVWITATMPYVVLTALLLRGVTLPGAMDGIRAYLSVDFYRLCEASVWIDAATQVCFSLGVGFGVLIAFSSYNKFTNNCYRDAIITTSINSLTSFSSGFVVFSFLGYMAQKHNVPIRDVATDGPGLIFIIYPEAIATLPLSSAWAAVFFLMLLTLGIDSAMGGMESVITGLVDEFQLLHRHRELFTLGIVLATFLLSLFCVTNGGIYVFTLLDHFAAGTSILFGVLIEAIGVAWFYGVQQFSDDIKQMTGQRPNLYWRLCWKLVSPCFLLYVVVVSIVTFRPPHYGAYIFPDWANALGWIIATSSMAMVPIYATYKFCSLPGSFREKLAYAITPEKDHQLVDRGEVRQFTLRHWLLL
- EXPERIMENT_DESCRIPTION: Inhibition of [3H]WIN-35428 binding to dopamine transporter using rat striatal tissue
- Type: tissue-based, Striatum
PROPERTY_MEASURED: IC50 (nM)
Numeric only. Scale: nM

COC(=O)[C@@H](c1cccc(N)c1)[C@@H]1CCCCN1 : 265

Asked: Reported IC50 for COC(=O)[C@@H](c1ccc(N)cc1)[C@@H]1CCCCN1 : what is it?
Given back: 34.6

Asked: Reported IC50 for COC(=O)[C@@H](c1ccc(Cl)cc1)[C@@H]1CCCCN1 : what is it?
Given back: 20.6

Asked: Reported IC50 for COC(=O)[C@@H](c1ccc(Cl)c(Cl)c1)[C@@H]1CCCCN1 : what is it?
Given back: 5.3

Asked: Reported IC50 for COC(=O)C(c1cccc(Cl)c1)C1CCCCN1 (single isomer, unassigned) : what is it?
Given back: 378

====

- TARGET_OR_TEST_SYSTEM: UniProtKB P23977
Measured Hill coefficient values are reported for all entries that follow.

Example cases with answers are listed next.
COC(=O)[C@H]1[C@@H](OC(=O)c2ccccc2)C[C@@H]2CC[C@H]1N2C : 1.03
COC(=O)[C@@H](c1ccc(C)cc1)[C@@H]1CCCCN1 : 1.05
COC(=O)C(c1ccccc1Br)C1CCCCN1 (single isomer, unassigned) : 1.06

Asked: What Hill coefficient appears in the records for this molecule with UniProtKB P23977? COC(=O)[C@@H](c1ccc(Cl)c(Cl)c1)[C@@H]1CCCCN1
Given back: 2.07

Asked: What Hill coefficient appears in the records for this molecule with UniProtKB P23977? COC(=O)[C@@H](c1ccc(OC)c(OC)c1)[C@@H]1CCCCN1
Given back: 1.12

Asked: What Hill coefficient appears in the records for this molecule with UniProtKB P23977? COC(=O)[C@@H](c1cccc(N)c1)[C@@H]1CCCCN1
Given back: 1.06

Asked: What Hill coefficient appears in the records for this molecule with UniProtKB P23977? COC(=O)[C@@H](c1ccc(Br)cc1)[C@@H]1CCCCN1
Given back: 1.15

Asked: What Hill coefficient appears in the records for this molecule with UniProtKB P23977? COC(=O)[C@@H](c1cccc(Cl)c1)[C@@H]1CCCCN1
Given back: 0.95

Asked: What Hill coefficient appears in the records for this molecule with UniProtKB P23977? COC(=O)[C@@H](c1ccccc1F)[C@@H]1CCCCN1
Given back: 0.9

Asked: What Hill coefficient appears in the records for this molecule with UniProtKB P23977? COC(=O)[C@@H](c1cccc(C)c1)[C@@H]1CCCCN1
Given back: 1.01

====

- TARGET_OR_TEST_SYSTEM: Sodium-dependent dopamine transporter (Rattus norvegicus, UniProt P23977)
- EXPERIMENT_DESCRIPTION: Inhibitory activity against [3H]dopamine uptake in rat striatal tissue
- Assay type: functional, tissue-based, Striatum
Binary call on IC50 with cut-off 100 nM: strictly below means Satisfied, and equality or higher means Not satisfied.

Asked: Decide: IC50 of COC(=O)[C@@H](c1cccc(O)c1)[C@@H]1CCCCN1 strictly below 100 nM?
Given back: Not satisfied

Asked: Decide: IC50 of COC(=O)[C@@H](c1ccc(Br)cc1)[C@@H]1CCCCN1 strictly below 100 nM?
Given back: Satisfied

Asked: Decide: IC50 of COC(=O)[C@@H](c1cccc(Br)c1)[C@@H]1CCCCN1 strictly below 100 nM?
Given back: Satisfied

Asked: Decide: IC50 of COC(=O)[C@@H](c1ccc(O)cc1)[C@@H]1CCCCN1 strictly below 100 nM?
Given back: Not satisfied

Asked: Decide: IC50 of COC(=O)[C@@H](c1ccccc1Cl)[C@@H]1CCCCN1 strictly below 100 nM?
Given back: Not satisfied

====

- TARGET_OR_TEST_SYSTEM: Sodium-dependent dopamine transporter (Rattus norvegicus) (UniProt P23977)
- Sequence (P23977 whole entry): as above
PROPERTY_MEASURED: Hill coefficient
# respond with the number and nothing more

COC(=O)[C@@H](c1ccc(C(C)(C)C)cc1)[C@@H]1CCCCN1 : 1.12

Asked: What Hill coefficient appears in the records for this compound with Sodium-dependent dopamine transporter (Rattus norvegicus) (UniProt P23977)? COC(=O)[C@@H](c1ccccc1O)[C@@H]1CCCCN1
Given back: 1.04

Asked: What Hill coefficient appears in the records for this compound with Sodium-dependent dopamine transporter (Rattus norvegicus) (UniProt P23977)? COC(=O)[C@@H](c1ccccc1)[C@@H]1CCCCN1
Given back: 0.9

Asked: What Hill coefficient appears in the records for this compound with Sodium-dependent dopamine transporter (Rattus norvegicus) (UniProt P23977)? COC(=O)[C@@H](c1ccc(I)cc1)[C@@H]1CCCCN1
Given back: 1.1

====

- TARGET_OR_TEST_SYSTEM: Sodium-dependent dopamine transporter (Rattus norvegicus)
- EXPERIMENT_DESCRIPTION: Inhibitory activity against [3H]dopamine uptake in rat striatal tissue
- Format: functional, tissue-based, Striatum
Binary call on IC50 with cut-off 2 µM: strictly below means MET, and equality or higher means NOT MET.

Examples with answers:
COC(=O)C(c1ccccc1OC)C1CCCCN1 (single isomer, unassigned) : NOT MET
COC(=O)C(c1cccc(Cl)c1)C1CCCCN1 (single isomer, unassigned) : MET

Asked: Decide: IC50 of COC(=O)[C@@H](c1cccc(F)c1)[C@@H]1CCCCN1 strictly below 2 µM?
Given back: MET

Asked: Decide: IC50 of COC(=O)[C@@H](c1ccccc1OC)[C@@H]1CCCCN1 strictly below 2 µM?
Given back: NOT MET

Asked: Decide: IC50 of COC(=O)[C@@H](c1ccccc1Br)[C@@H]1CCCCN1 strictly below 2 µM?
Given back: NOT MET

====

- TARGET_OR_TEST_SYSTEM: Sodium-dependent dopamine transporter (Rattus norvegicus)
PROPERTY_MEASURED: Hill coefficient
# respond with the number and nothing more

Example cases with answers are listed next.
COC(=O)[C@@H](c1ccc(N)cc1)[C@@H]1CCCCN1 : 0.96
COC(=O)[C@@H](c1ccc(Cl)cc1)[C@@H]1CCCCN1 : 1.17
COC(=O)[C@@H](c1ccc(O)cc1)[C@@H]1CCCCN1 : 1.07

Asked: What Hill coefficient appears in the records for this compound with Sodium-dependent dopamine transporter (Rattus norvegicus)? COC(=O)[C@@H](c1ccc([N+](=O)[O-])cc1)[C@@H]1CCCCN1
Given back: 1.17

Asked: What Hill coefficient appears in the records for this compound with Sodium-dependent dopamine transporter (Rattus norvegicus)? COC(=O)C(c1ccccc1OC)C1CCCCN1 (single isomer, unassigned)
Given back: 0.87

====

Target or system Sodium-dependent dopamine transporter (Rattus norvegicus) (UniProt P23977); recorded quantity Hill coefficient.
# respond with the number and nothing more

COC(=O)[C@@H](c1ccccc1Cl)[C@@H]1CCCCN1 : 0.98

Asked: What Hill coefficient appears in the records for this molecule with Sodium-dependent dopamine transporter (Rattus norvegicus) (UniProt P23977)? COC(=O)[C@@H](c1ccccc1Br)[C@@H]1CCCCN1
Given back: 0.93

Asked: What Hill coefficient appears in the records for this molecule with Sodium-dependent dopamine transporter (Rattus norvegicus) (UniProt P23977)? COC(=O)[C@@H](c1cccc(Br)c1)[C@@H]1CCCCN1
Given back: 1.14

Asked: What Hill coefficient appears in the records for this molecule with Sodium-dependent dopamine transporter (Rattus norvegicus) (UniProt P23977)? COC(=O)[C@@H](c1ccccc1OC)[C@@H]1CCCCN1
Given back: 0.94

Asked: What Hill coefficient appears in the records for this molecule with Sodium-dependent dopamine transporter (Rattus norvegicus) (UniProt P23977)? COC(=O)[C@@H](c1cccc(F)c1)[C@@H]1CCCCN1
Given back: 0.85

Asked: What Hill coefficient appears in the records for this molecule with Sodium-dependent dopamine transporter (Rattus norvegicus) (UniProt P23977)? COC(=O)C(c1ccccc1Cl)C1CCCCN1 (single isomer, unassigned)
Given back: 0.92

====

Measured IC50 values are reported for all entries that follow.
- TARGET_OR_TEST_SYSTEM: Sodium-dependent dopamine transporter (Rattus norvegicus, UniProt P23977)
- EXPERIMENT_DESCRIPTION: Inhibition of [3H]WIN-35428 binding to dopamine transporter using rat striatal tissue
- Type: tissue-based, Striatum
Numeric only. Scale: nM

COC(=O)[C@@H](c1ccc(C)cc1)[C@@H]1CCCCN1 : 33
COC(=O)[C@@H](c1ccc(O)cc1)[C@@H]1CCCCN1 : 98
COC(=O)[C@@H](c1ccc(OC)c(OC)c1)[C@@H]1CCCCN1 : 810

Asked: What IC50 appears in the records for this compound with Sodium-dependent dopamine transporter (Rattus norvegicus, UniProt P23977)? COC(=O)[C@@H](c1cccc(Cl)c1)[C@@H]1CCCCN1
Given back: 5.1

Asked: What IC50 appears in the records for this compound with Sodium-dependent dopamine transporter (Rattus norvegicus, UniProt P23977)? COC(=O)[C@@H](c1ccc(Br)cc1)[C@@H]1CCCCN1
Given back: 6.9

Asked: What IC50 appears in the records for this compound with Sodium-dependent dopamine transporter (Rattus norvegicus, UniProt P23977)? COC(=O)[C@@H](c1cccc(Br)c1)[C@@H]1CCCCN1
Given back: 4.2

Asked: What IC50 appears in the records for this compound with Sodium-dependent dopamine transporter (Rattus norvegicus, UniProt P23977)? COC(=O)[C@@H](c1ccccc1Br)[C@@H]1CCCCN1
Given back: 1870

Asked: What IC50 appears in the records for this compound with Sodium-dependent dopamine transporter (Rattus norvegicus, UniProt P23977)? COC(=O)[C@@H](c1ccc(I)cc1)[C@@H]1CCCCN1
Given back: 14

Asked: What IC50 appears in the records for this compound with Sodium-dependent dopamine transporter (Rattus norvegicus, UniProt P23977)? COC(=O)[C@@H](c1ccc([N+](=O)[O-])cc1)[C@@H]1CCCCN1
Given back: 494

Asked: What IC50 appears in the records for this compound with Sodium-dependent dopamine transporter (Rattus norvegicus, UniProt P23977)? COC(=O)C(c1ccccc1Cl)C1CCCCN1 (single isomer, unassigned)
Given back: 52500

Asked: What IC50 appears in the records for this compound with Sodium-dependent dopamine transporter (Rattus norvegicus, UniProt P23977)? COC(=O)[C@@H](c1cccc(C)c1)[C@@H]1CCCCN1
Given back: 21.4
